// provenance: ChEMBL document CHEMBL5096219

# Tested on: K562
# METHOD_SUMMARY: cells
# Format: functional, cell-based
# MEASUREMENT_SETUP: Homo sapiens, K562, 72 h
# Description: Antiproliferative activity against human K562 cells assessed as inhibition of cell proliferation incubated for 72 hrs by CCK8 assay
READOUT_NAME: IC50 (µM)

Observe how each entry below is paired with its result.
Nc1ncc(-c2cn(CCCCCCC(=O)NO)c(=O)c(N3CCOCC3)n2)cn1
3.84
O=C(NO)c1ccc(Cn2cc(-c3cccc(O)c3)nc(N3CCOCC3)c2=O)cc1
3.84

a: Nc1ncc(-c2cn(Cc3ccc(C(=O)NO)cc3)c(=O)c(N3CCOCC3)n2)cn1
b: O=C(NO)c1ccc(Cn2cc(-c3cccc(CO)c3)nc(N3CCOCC3)c2=O)cc1
Identify the entry with the smaller IC50: a or b . Give the chosen item's label as your response.
b
